assay: in vitro; conditions: human, hela cells, % viability

>  <query_smiles>
COc1ccc(C(=O)Nc2ccc3oc(-c4cccc(C)c4)nc3c2)cc1Br

>  <viability at 28.5 h, 10 µM>
100%

$$$$
>  <query_smiles>
CCc1ccc(NS(=O)(=O)c2cnn(CC)c2)cc1

>  <viability at 28.5 h, 10 µM>
101%

$$$$
>  <query_smiles>
Cc1nc(CN2CCN(C(=O)NCCc3cnn(C)c3)CC2)cs1

>  <viability at 28.5 h, 10 µM>
81.3%

$$$$

----------
Listed here: items and their measured viability at 28.5 h, 10 µM.
test: in vitro; details: human, hela cells, % viability
measurement_label: viability at 28.5 h, 10 µM

>  <compound>
COc1ccc(S(=O)(=O)NCCO)cc1-c1nnc2c3ccccc3c(C)nn12 [CBK266933]

>  <test_result>
91.9%

$$$$
>  <compound>
Cc1noc(C)c1C(=O)N1CCC2(CC1)CC(=O)c1cc(Br)ccc1O2 [CBK156508]

>  <test_result>
90%

$$$$
>  <compound>
CSc1ccc(CN(C)c2cncc(-n3cccn3)n2)cc1 [CBK298326]

>  <test_result>
91.2%

$$$$
>  <compound>
CCCOC(=O)c1c(NC(=O)C2C3C=CC(C3)C2C(=O)O)sc2c1CCC(C)C2 (stereo not drawn) [CBK265473]

>  <test_result>
87.5%

$$$$
>  <compound>
CCc1ccc(-c2ccc(-c3cc(C(=O)O)c4cc(Br)ccc4n3)o2)cc1 [CBK300543]

>  <test_result>
90.6%

$$$$
>  <compound>
COc1ccc(Br)cc1S(=O)(=O)NCc1cccnc1 [CBK264023]

>  <test_result>
90.7%

$$$$

----------
experiment: in vitro; conditions: human, hela cells, % viability
Listed here: items and their measured viability at 28.5 h, 10 µM.

>  <molecule>
CCOC(=O)c1sc(-c2ccccc2)nc1C

>  <viability at 28.5 h, 10 µM [%]>
87.5

$$$$
>  <molecule>
C=CCNc1nccnc1-c1ccc(CO)cc1

>  <viability at 28.5 h, 10 µM [%]>
91.4

$$$$
>  <molecule>
Cc1ccn2c(C3CCN(CCc4ccccc4)CC3)nc(-c3ccccc3)c2c1

>  <viability at 28.5 h, 10 µM [%]>
89.4

$$$$
>  <molecule>
O=C(O)c1cccc2c1C(=O)N(c1ccccc1)C2

>  <viability at 28.5 h, 10 µM [%]>
91.4

$$$$
>  <molecule>
CCOC(=O)C1CCCN(Cc2c[nH]nc2-c2ccc(OC)cc2F)C1 (stereo not drawn)

>  <viability at 28.5 h, 10 µM [%]>
91.1

$$$$
>  <molecule>
Cc1ccc2nc(N3CCCC(O)C3)c(CN3CCC(F)CC3)cc2c1 (stereo not drawn)

>  <viability at 28.5 h, 10 µM [%]>
89.1

$$$$
>  <molecule>
COc1ccc(-c2nc(NC(=O)c3ccncc3)cnc2-c2ccc(F)c(Cl)c2)cc1

>  <viability at 28.5 h, 10 µM [%]>
88.6

$$$$
>  <molecule>
O=C(c1cnccn1)N1CCN(c2nc3c(F)cccc3s2)CC1

>  <viability at 28.5 h, 10 µM [%]>
91.6

$$$$
>  <molecule>
CC(C)(C)c1nc(COc2ccc3nonc3c2)no1

>  <viability at 28.5 h, 10 µM [%]>
91.8

$$$$
